Molecular target: NKp30 on human NK cells (human) (UniProt O14931)
Sequence (O14931 19-201): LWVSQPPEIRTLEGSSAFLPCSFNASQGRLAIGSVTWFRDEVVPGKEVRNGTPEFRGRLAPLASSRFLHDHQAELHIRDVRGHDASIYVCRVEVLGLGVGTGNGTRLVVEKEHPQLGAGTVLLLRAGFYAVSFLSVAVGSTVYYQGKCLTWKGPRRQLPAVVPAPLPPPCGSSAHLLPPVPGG
Assay: cell-based or functional assay
Please go through the items and note down their EC50 improvement compared to ΔB7-H6 wt.
Numbers only, in fold.

* ΔB7-H6_S3#10-SEED-PGLALA (bispecific antibody, part only; not given: SEED Fc chains and hu225 Fab, part only) chain, part: DLKVEMMAGGTQITPLNDNVTIFCNIFYSQPLNITSMGITWFWKSLTFDKEVKVFEFYGDHQEAFRPGAIVSPWRLKSGDASLRLPGIQLEEAGEYRCEVFVTPYKAQGTVQLEVVASPAS | 10
* ΔB7-H6_S3#30-SEED-PGLALA (bispecific antibody, part only; not given: SEED Fc chains and hu225 Fab, part only) chain, part: DLKVEMMAGGTQITPLNDNVTIFCNIFYSQPLNITEMGITWFWKSLTFDKEVKVFEFWGDHQEAFRPGAIVSPWRLKSGDASLRLPGIQLEEAGEYRCEVIVTPLKAQGTVQLEVVASPAS | 5
* ΔB7-H6_S2#11-SEED-PGLALA (bispecific antibody, part only; not given: SEED Fc chains and hu225 Fab, part only) chain, part: DLKVEMMAGGTQITPLNDNVTIFCNIFYSQPLNITTMGITWFWKSLTFDKEVKVFEFWQDHQEAFRPGAIVSPWRLKSGDASLRLPGIQLEEAGEYRCEVVVTPLKAQGTVQLEVVASPAS | 5

Let's switch to this binder now.
Recorded EC50 improvement compared to ΔB7-H6 wt of ΔB7-H6_S3#19-SEED-PGLALA (bispecific antibody, part only; not given: SEED Fc chains and hu225 Fab, part only) chain, part: DLKVEMMAGGTQITPLNDNVTIFCNIFYSQPLNITQMGITWFWKSLTFDKEVKVFEFWGDHQEAFRPGAIVSPWRLKSGDASLRLPGIQLEEAGEYRCEVVVTPYKAQGTVQLEVVASPAS , please.
4
